Tested on: HRAS
Assay: 3' UTR reporter interaction score (median-centred robust z-score of log2 firefly/Renilla activity); higher = less repression of the 3' UTR reporter
Conditions: HEK293T; 48 h
readout-label: 3' UTR reporter interaction score
Please state the value as a number alone, without comment.

query: I am curious: what 3' UTR reporter interaction score value has been reported for UGAGGUAGUAGGUUGUAUGGUU ?
result: 0.339

query: I am curious: what 3' UTR reporter interaction score value has been reported for GAAAACAGCAAUUACCUUUGCA ?
result: -0.7

query: I am curious: what 3' UTR reporter interaction score value has been reported for AAAGUGCUUCCUUUUAGAGGGUU ?
result: 0.0494

query: I am curious: what 3' UTR reporter interaction score value has been reported for UCGUACCGUGAGUAAUAAUGC ?
result: -0.495

query: I am curious: what 3' UTR reporter interaction score value has been reported for UAGCACCAUCUGAAAUCGGUU ?
result: 0.469

query: I am curious: what 3' UTR reporter interaction score value has been reported for AUCGCUGCGGUUGCGAGCGCUGU ?
result: -1.73

query: I am curious: what 3' UTR reporter interaction score value has been reported for UGAGGUAGUAGUUUGUACAGU ?
result: 1.06

query: I am curious: what 3' UTR reporter interaction score value has been reported for UCUCCCAACCCUUGUACCAGUG ?
result: 0.137

====

System: RB1
Experiment: 3' UTR reporter interaction score (median-centred robust z-score of log2 firefly/Renilla activity); higher = less repression of the 3' UTR reporter
Conditions: HEK293T; 48 h
Label F if 3' UTR reporter interaction score falls below -0.4; label T in every other case.

query: In plain terms: is recorded 3' UTR reporter interaction score at least -0.4 for GAAGUGCUUCGAUUUUGGGGUGU ?
result: T

query: In plain terms: is recorded 3' UTR reporter interaction score at least -0.4 for CAAAGUUUAAGAUCCUUGAAGU ?
result: T

query: In plain terms: is recorded 3' UTR reporter interaction score at least -0.4 for UGUAAACAUCCCCGACUGGAAG ?
result: T

query: In plain terms: is recorded 3' UTR reporter interaction score at least -0.4 for UAUUGCACUCGUCCCGGCCUC ?
result: T

query: In plain terms: is recorded 3' UTR reporter interaction score at least -0.4 for UCAGUGCACUACAGAACUUUGU ?
result: T

query: In plain terms: is recorded 3' UTR reporter interaction score at least -0.4 for UCAGUGCAUCACAGAACUUUGU ?
result: T

query: In plain terms: is recorded 3' UTR reporter interaction score at least -0.4 for AAAGACAUAGGAUAGAGUCACCUC ?
result: F

query: In plain terms: is recorded 3' UTR reporter interaction score at least -0.4 for CUGAAGUGAUGUGUAACUGAUCAG ?
result: F

query: In plain terms: is recorded 3' UTR reporter interaction score at least -0.4 for UGAAACAUACACGGGAAACCUCUU ?
result: F

query: In plain terms: is recorded 3' UTR reporter interaction score at least -0.4 for AGUUAAUGAAUCCUGGAAAGU ?
result: F

query: In plain terms: is recorded 3' UTR reporter interaction score at least -0.4 for UAAGGUGCAUCUAGUGCAGAUA ?
result: T

query: In plain terms: is recorded 3' UTR reporter interaction score at least -0.4 for AACCCGUAGAUCCGAUCUUGUG ?
result: T

query: In plain terms: is recorded 3' UTR reporter interaction score at least -0.4 for UGUGCAAAUCUAUGCAAAACUGA ?
result: T

query: In plain terms: is recorded 3' UTR reporter interaction score at least -0.4 for UAAUCUCAGCUGGCAACUGUG ?
result: F

====

System: NOTCH1
Experiment: 3' UTR reporter interaction score (median-centred robust z-score of log2 firefly/Renilla activity); higher = less repression of the 3' UTR reporter
Details: HEK293T; 48 h
readout-label: 3' UTR reporter interaction score
Please state the value as a number alone, without comment.

query: I am curious: what 3' UTR reporter interaction score value has been reported for CCCAGUGUUCAGACUACCUGUUC ?
result: 0.374

query: I am curious: what 3' UTR reporter interaction score value has been reported for UUAUCAGAAUCUCCAGGGGUAC ?
result: 0.0518

query: I am curious: what 3' UTR reporter interaction score value has been reported for UCUCACACAGAAAUCGCACCCGUC ?
result: 0.283

query: I am curious: what 3' UTR reporter interaction score value has been reported for UACAGUACUGUGAUAACUGAAG ?
result: -1.33

query: I am curious: what 3' UTR reporter interaction score value has been reported for CUGGACUUAGGGUCAGAAGGCC ?
result: -1.28

query: I am curious: what 3' UTR reporter interaction score value has been reported for AACGCGCUUCCCUAUAGAGGG ?
result: 0.382

query: I am curious: what 3' UTR reporter interaction score value has been reported for ACUCCAGCCCCACAGCCUCAGC ?
result: -0.369

query: I am curious: what 3' UTR reporter interaction score value has been reported for AGACUUCCCAUUUGAAGGUGGC ?
result: -0.842

====

Assign 3' UTR reporter interaction score to each entry below.
Tested on: EZH2
Test: 3' UTR reporter interaction score (median-centred robust z-score of log2 firefly/Renilla activity); higher = less repression of the 3' UTR reporter
Details: HEK293T; 48 h
Please state the value as a number alone, without comment.

query: I am curious: what 3' UTR reporter interaction score value has been reported for AGAGGUAGUAGGUUGCAUAGU ?
result: -3.25

query: I am curious: what 3' UTR reporter interaction score value has been reported for UUUAACAUGGGGGUACCUGCUG ?
result: 0.537

query: I am curious: what 3' UTR reporter interaction score value has been reported for AAGCUGCCAGUUGAAGAACUGU ?
result: -0.11

query: I am curious: what 3' UTR reporter interaction score value has been reported for AAUUGCACGGUAUCCAUCUGUA ?
result: -0.862

query: I am curious: what 3' UTR reporter interaction score value has been reported for UGAUUGGUACGUCUGUGGGUAGA ?
result: -0.0408

query: I am curious: what 3' UTR reporter interaction score value has been reported for UACUGCAUCAGGAACUGAUUGGAU ?
result: -1.49

query: I am curious: what 3' UTR reporter interaction score value has been reported for AGGCUGCGGAAUUCAGGAC ?
result: -1.27

query: I am curious: what 3' UTR reporter interaction score value has been reported for UGGAGGAGAAGGAAGGUGAUG ?
result: -2.61

query: I am curious: what 3' UTR reporter interaction score value has been reported for AUGAUCCAGGAACCUGCCUCU ?
result: 1.23

query: I am curious: what 3' UTR reporter interaction score value has been reported for CAUUGCACUUGUCUCGGUCUGA ?
result: 0.125

query: I am curious: what 3' UTR reporter interaction score value has been reported for UUGAAACAAUCUCUACUGAAC ?
result: 0.163

query: I am curious: what 3' UTR reporter interaction score value has been reported for UGUCUUACUCCCUCAGGCACAU ?
result: -0.24

query: I am curious: what 3' UTR reporter interaction score value has been reported for GUGUCUUUUGCUCUGCAGUCA ?
result: 1.94

query: I am curious: what 3' UTR reporter interaction score value has been reported for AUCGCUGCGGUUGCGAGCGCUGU ?
result: -1.15

query: I am curious: what 3' UTR reporter interaction score value has been reported for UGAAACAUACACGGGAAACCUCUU ?
result: 0.948

query: I am curious: what 3' UTR reporter interaction score value has been reported for AUCAUGAUGGGCUCCUCGGUGU ?
result: -0.332

query: I am curious: what 3' UTR reporter interaction score value has been reported for UAGCAGCACAGAAAUAUUGGC ?
result: -0.914

query: I am curious: what 3' UTR reporter interaction score value has been reported for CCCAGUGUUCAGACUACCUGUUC ?
result: -0.25

query: I am curious: what 3' UTR reporter interaction score value has been reported for UUUGUUCGUUCGGCUCGCGUGA ?
result: 0.52

query: I am curious: what 3' UTR reporter interaction score value has been reported for UGUCUUGCAGGCCGUCAUGCA ?
result: -0.168

query: I am curious: what 3' UTR reporter interaction score value has been reported for UGAAGGUCUACUGUGUGCCAG ?
result: 0.277

query: I am curious: what 3' UTR reporter interaction score value has been reported for AAAGUGCUUCCUUUUAGAGGG ?
result: -1.28

query: I am curious: what 3' UTR reporter interaction score value has been reported for GUGCAUUGUAGUUGCAUUG ?
result: -0.326

query: I am curious: what 3' UTR reporter interaction score value has been reported for CAAAGUGCCUCCCUUUAGAGUGU ?
result: -0.27

query: I am curious: what 3' UTR reporter interaction score value has been reported for UCCAGUACCACGUGUCAGGGCCA ?
result: -1.44

query: I am curious: what 3' UTR reporter interaction score value has been reported for AGACCAUGGGUUCUCAUUGU ?
result: 0.304

query: I am curious: what 3' UTR reporter interaction score value has been reported for GCUGGGCAGGGCUUCUGAGCUCCUU ?
result: -0.0238

query: I am curious: what 3' UTR reporter interaction score value has been reported for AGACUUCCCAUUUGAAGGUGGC ?
result: 0.311

query: I am curious: what 3' UTR reporter interaction score value has been reported for UGUGUCACUCGAUGACCACUGU ?
result: 1.04

query: I am curious: what 3' UTR reporter interaction score value has been reported for CUAAUAGUAUCUACCACAAUAAA ?
result: 0.167

query: I am curious: what 3' UTR reporter interaction score value has been reported for GUGUGUGGAAAUGCUUCUGC ?
result: 1.67

query: I am curious: what 3' UTR reporter interaction score value has been reported for AUGCACCUGGGCAAGGAUUCUG ?
result: 2.23

query: I am curious: what 3' UTR reporter interaction score value has been reported for UAGUGCAAUAUUGCUUAUAGGGUUU ?
result: -1.22
